meta.source: PubChem BioAssay (NCATS)

target: Cytochrome P450 2D6 (Homo sapiens) (UniProt P10635); test: qHTS Assay for Inhibitors and Substrates of Cytochrome P450 2D6 (AID 891); conditions: recombinant CYP2D6, luciferin-ME EGE luminescence; series mostly up to 57.1 µM; note: nearly all actives have a fitted effect of over 60% in size
Sequence (P10635 whole entry, looked up): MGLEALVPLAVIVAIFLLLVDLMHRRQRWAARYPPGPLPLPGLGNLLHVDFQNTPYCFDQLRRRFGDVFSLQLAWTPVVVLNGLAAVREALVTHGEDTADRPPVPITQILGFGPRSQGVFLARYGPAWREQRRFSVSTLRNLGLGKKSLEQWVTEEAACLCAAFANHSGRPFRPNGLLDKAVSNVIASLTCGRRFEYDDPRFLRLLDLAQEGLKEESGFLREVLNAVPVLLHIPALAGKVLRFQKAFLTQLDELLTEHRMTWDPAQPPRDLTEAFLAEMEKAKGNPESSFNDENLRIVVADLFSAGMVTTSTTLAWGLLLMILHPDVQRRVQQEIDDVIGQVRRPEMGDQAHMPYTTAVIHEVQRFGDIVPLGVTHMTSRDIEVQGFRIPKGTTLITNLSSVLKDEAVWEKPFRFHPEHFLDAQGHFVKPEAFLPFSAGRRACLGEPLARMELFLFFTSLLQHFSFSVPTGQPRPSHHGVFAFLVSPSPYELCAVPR
Inconclusive results are not listed. Activity calls are given as the source filed them. Calls come from the whole dose curve; as a rule, active = well fitted inhibition curve with a large enough effect; inconclusive = small, poorly fitted or top-dose-only effect; inactive = no such curve, though single readings can be large or run the other way.
Could you please pick one outcome from this set? yes (1) for active, no (0) for inactive

c1ccc(CNc2ccnc(-c3cccnc3)n2)cc1
yes (1)
COc1ccccc1CN1CC2(CCN(C(=O)c3ccncc3)CC2)C1
yes (1)
COc1ccccc1CN1CCCC2(CCN(C(=O)c3ccncc3)CC2)C1
yes (1)
O=C(c1ccco1)N1CCC2(CCCN(Cc3ccncc3)C2)CC1
yes (1)
COc1ccc2[nH]cc(CCNc3nc(-c4cccnc4)nc4ccccc34)c2c1
yes (1)

(Q) Short answer needed: outcome of this test for `Cc1noc(C)c1C(=O)N1CCC[C@@]2(CCN(Cc3ccc(C#N)cc3)C2)C1` ?
(A) no (0)

(Q) // same read-out, input: `c1ncc(-c2ccc3c(c2)OCO3)c(NCCc2cnc[nH]2)n1`
(A) yes (1)

(Q) Please do the same for `Cc1ccccc1-c1nc(N(C)Cc2ccco2)c2ccccc2n1` as well.
(A) yes (1)

(Q) How about `Cc1cc(C)c(S(=O)(=O)Nc2ccccc2C(F)(F)F)c(C)c1` ?
(A) yes (1)

(Q) Do the same for `CCNc1ncc2nc(-c3cn(C)c4ccccc34)c(=O)n(CCC#N)c2n1` please
(A) yes (1)

(Q) Please give the result for `COc1cccc(-c2nccc(NCc3cccs3)n2)c1` too.
(A) yes (1)

(Q) Can you handle `O=S(=O)(c1ccccc1)N1CCC[C@@]2(CCN(Cc3nccs3)C2)C1` next?
(A) yes (1)

(Q) Follow-up entry: `COc1ccccc1CN1CC[C@@]2(CCCN(C(=O)c3ccco3)C2)C1`
(A) yes (1)
